- procedure.details: chemical genetic growth profiling, strain panel (AID 1159580);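 also: tested at 20 µM; growth read once vehicle control cultures reached saturation at 30 °C; 1 = growth at the plate median or of vehicle wells; lower values mean less growth of the strain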
- measurement.conditions: S. cerevisiae deletion strains, growth OD, locus YFL009W, strain cdc4, hits give low values
The campaign covered roughly 5,500 compounds. About 2,000 (36%) were called active. Another 18% or so got no clear call; they are omitted. Some of the results follow.
readout.kind: normalized growth
Write no unit; give the number alone.

Some compounds with recorded normalized growth:
O=C(NNc1ccccc1)c1cc(-c2ccc(Cl)cc2)oc1C(F)(F)F :: 0.958
Cc1noc(C)c1S(=O)(=O)Nc1csc(C(F)(F)F)c1-c1ccccc1 :: 0.969
Cc1ccc(S(=O)(=O)Nc2nc(-c3ccc(C)c(Cl)c3)c(C)s2)cc1 :: 0.989
O=C(Nc1ccncc1)c1cc(-c2ccccc2)oc1C(F)(F)F :: 0.99
N/C(=N/O)c1ccc(Oc2ccc(C3SCCS3)cc2)c([N+](=O)[O-])c1 :: 0.992
O=S(=O)(Nc1csc(C(F)(F)F)c1-c1ccccc1)c1cc(Br)c(Br)s1 :: 0.968
Cc1ccc(-c2nc(NS(=O)(=O)c3cccc4nonc34)sc2C)cc1Cl :: 0.972
CC1=CC(=O)N(c2ccc(F)c(Cl)c2)C1=O :: 0.974

Would you mind telling me what normalized growth value was observed for CC1=CC(=O)N(c2ccc(OC(F)(F)F)cc2)C1=O ?
0.849

Next up: COc1ccc2c(c1)CCc1sc(NC(=O)c3ccco3)nc1-2
0.963

Next up: Clc1ccccc1-c1csc(-c2ccncc2)n1
0.942

Next up: Clc1ccc(Oc2ccnc3cc(Cl)ccc23)cc1
0.903

Next up: O=S(=O)(Nc1cc(Cl)c(Cl)cc1Cl)c1cc(C(F)(F)F)cc(C(F)(F)F)c1
0.959

----------
- procedure.details: chemical genetic growth profiling, strain panel (AID 1159580)
- measurement.conditions: S. cerevisiae deletion strains, growth OD, locus YAL026C, strain drs2, hits give low values
Among all 5,500 compounds or so, about 2,000 (36%) were called active. Another 18% or so got no clear call; they are omitted. This is one part of the list.
readout.kind: normalized growth
Write no unit; give the number alone.

Some compounds with recorded normalized growth:
COc1cc2c(cc1OC)C1(O)C(=O)c3ccc(O)c(C(=O)O)c3OC1CO2 (stereo unspecified) :: 0.988
CCCCCCCCCCCCCC(=O)OC1C(C)C2(O)C(C=C(CO)CC3(O)C(=O)C(C)=CC32)C2C(C)(C)C12OC(C)=O (stereo unspecified) :: 0.985
Fc1ccc([C@@H]2CCNC[C@H]2COc2ccc3c(c2)OCO3)cc1 :: 0.997

Would you mind telling me what normalized growth value was observed for CCC(C)C(=O)c1c(O)c(C)c2oc3c(C)c(O)c(C(=O)C(C)CC)c(O)c3c2c1O (stereo unspecified) ?
0.982

Next up: COc1ccc2nc(S(=O)Cc3ncc(C)c(OC)c3C)[nH]c2c1 (stereo unspecified)
1

Next up: COc1ccc2c(c1)OCC(Cc1ccc(O)c(OC)c1)C2=O (stereo unspecified)
0.982

----------
- procedure.details: chemical genetic growth profiling, strain panel (AID 1159580)
- measurement.conditions: S. cerevisiae deletion strains, growth OD, locus YJL154C, strain vps35, hits give low values
Among all 5,500 compounds or so, about 2,000 (36%) were called active. Inconclusive results (about 18%) are left out. The list shows a part of the results.
readout.kind: normalized growth
Write no unit; give the number alone.

Some compounds with recorded normalized growth:
Clc1ccc(C(c2ccccc2Cl)C(Cl)Cl)cc1 (stereo not drawn) :: 0.978
O=C(O)[C@@H](S)[C@@H](S)C(=O)O :: 0.979

Would you mind telling me what normalized growth value was observed for COc1ccc2c(c1)OCC(Cc1ccc(OC)c(OC)c1)C2=O (stereo not drawn) ?
0.98

Next up: COc1ccc2c(c1)OCC(Cc1ccc(O)c(OC)c1)C2=O (stereo not drawn)
0.973

----------
- procedure.details: chemical genetic growth profiling, strain panel (AID 1159580)
- measurement.conditions: S. cerevisiae deletion strains, growth OD, locus YDL185W, strain tfp1
Out of some 5,500 compounds screened, about 2,000 (36%) were called active. Inconclusive results (about 18%) are left out. No stated cut-off is given here; in the data, active means normalized growth mostly below about 0.91 (no sharp cut-off); inconclusive means no clear call, values can overlap the other calls; inactive means mostly above about 0.92. This is one part of the list.
Hello, when you answer, please use one of the following outcomes: yes (active), no (inactive)

COC(=O)/C(C)=C\CC12OC(C)(C)C3CC(C=C4C(=O)c5c(OC)c6c(c(CC=C(C)C)c5OC431)OC(C)(CCC=C(C)C)C=C6)C2=O (stereo not drawn) :: no

Note: attention shifts to another entry.
Status in this test for O=c1[nH]c(=O)n(C2C[C@H](O)[C@@H](CO)O2)cc1C(F)(F)F (stereo partly drawn) ?
no

----------
- procedure.details: chemical genetic growth profiling, strain panel (AID 1159580)
- measurement.conditions: S. cerevisiae deletion strains, growth OD, locus YLL041C, strain sdh2, hits give low values
The campaign covered roughly 5,500 compounds. About 2,000 (36%) were called active. Roughly 18% stayed inconclusive and do not appear here. The list shows a part of the results.
readout.kind: normalized growth
Write no unit; give the number alone.

Some molecules with recorded normalized growth:
CCN1C[C@@]2(COC)C3[C@@H](OC)[C@H]4[C@@H]1[C@]3(C(OC)C[C@H]2O)C1C[C@@]2(O)[C@H](OC(=O)c3ccccc3)C1[C@]4(OC(C)=O)[C@@H](O)[C@@H]2OC (stereo not given in full) :: 1.01
O=c1oc2ccccc2cc1O :: 1.01
O=c1cccc2n1CC1CC2CN2CCCC[C@@H]12 (stereo not given in full) :: 0.98

Would you mind telling me what normalized growth value was observed for CCC(C)C(=O)c1c(O)c(C)c2oc3c(C)c(O)c(C(=O)C(C)CC)c(O)c3c2c1O (stereo not given) ?
1.01

Next up: CCCn1c(=O)c2[nH]c(C3CCCC3)nc2n(CCC)c1=O
0.979

Next up: CC(=O)O[C@@H]1CC2C(C)(C)[C@H](O)C=C[C@]2(C)C2CC[C@@]3(C)[C@H](c4ccoc4)OC(=O)C4OC43[C@@]21C (stereo not given in full)
1.01

----------
# normalized growth per entry
- procedure.details: chemical genetic growth profiling, strain panel (AID 1159580);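 also: tested at 20 µM; growth read once vehicle control cultures reached saturation at 30 °C; 1 = growth at the plate median or of vehicle wells; lower values mean less growth of the strain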
- measurement.conditions: S. cerevisiae deletion strains, growth OD, locus YHR079C, strain IRE1, hits give low values
Out of some 5,500 compounds screened, about 2,000 (36%) were called active. Another 18% or so got no clear call; they are omitted. Some of the results follow.
Write no unit; give the number alone.

CC(C)(S)[C@@H](N)C(=O)O :: 0.982

Would you mind telling me what normalized growth value was observed for c1cncc(C2=NCCC2)c1 ?
1.01

Next up: NCCCCNCCCN
0.985

----------
- procedure.details: chemical genetic growth profiling, strain panel (AID 1159580);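 also: tested at 20 µM; growth read once vehicle control cultures reached saturation at 30 °C; 1 = growth at the plate median or of vehicle wells; lower values mean less growth of the strain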
- measurement.conditions: S. cerevisiae deletion strains, growth OD, locus YDR335W, strain msn5
The whole screen tested about 5,500 compounds, of which about 2,000 (36%) were called active. Inconclusive results (about 18%) are left out. Cut-off read from the data, not from the text of the source: active = normalized growth mostly below about 0.91 (no sharp cut-off); inconclusive = no clear call, values can overlap the other calls; inactive = mostly above about 0.92. The list shows a part of the results.
Hello, when you answer, please use one of the following outcomes: active, inactive

Solved cases (7 shown):
COC(=O)[C@@H]1OC(=O)C2OC23[C@@]1(C)CCC1[C@@]2(C)CCC(=O)C(C)(C)C2C[C@@H](OC(C)=O)[C@]13C (stereo partly drawn) :: inactive
COc1ccc2c(c1)OCC(Cc1ccc(OC)c(OC)c1)C2=O (stereo not drawn) :: inactive
COc1ccc(CCC(=O)c2c(O)cc(O[C@@H]3O[C@H](CO)C(O)[C@H](O)C3O[C@@H]3O[C@@H](C)[C@H](O)[C@@H](O)[C@H]3O)cc2O)cc1O (stereo partly drawn) :: inactive
Clc1ccc(C(Cn2ccnc2)OCc2ccsc2Cl)c(Cl)c1 (stereo not drawn) :: active
Clc1ccc(COC(Cn2ccnc2)c2ccc(Cl)cc2Cl)c(Cl)c1 (stereo not drawn) :: active
CC(=O)O[C@H]1CC[C@@]2(C)C(C[C@@H](OC(C)=O)[C@]3(C)C2CC[C@@]2(C)[C@H](c4ccoc4)OC(=O)[C@H]4O[C@]423)C1(C)C (stereo partly drawn) :: inactive
COc1ccc2nc(S(=O)Cc3ncc(C)c(OC)c3C)[nH]c2c1 (stereo not drawn) :: inactive

Note: attention shifts to another entry.
Status in this test for Cc1cc(CC(=O)O)n(C)c1C(=O)c1ccc(Cl)cc1 ?
inactive

----------
- procedure.details: chemical genetic growth profiling, strain panel (AID 1159580);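 also: tested at 20 µM; growth read once vehicle control cultures reached saturation at 30 °C; 1 = growth at the plate median or of vehicle wells; lower values mean less growth of the strain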
- measurement.conditions: S. cerevisiae deletion strains, growth OD, locus YFL029C, strain CAK1, hits give low values
Screen size: about 5,500 compounds; about 2,000 (36%) were called active. Not shown: some 18% with an inconclusive outcome. The list shows a part of the results.
readout.kind: normalized growth
Write no unit; give the number alone.

Clc1cccc(Nc2ncc(-c3ccc4c(c3)OCCCO4)s2)c1 :: 0.977
O=C(Nc1cc(C(F)(F)F)cc(C(F)(F)F)c1)C(Cl)(Cl)Cl :: 0.962
N#Cc1cccc(CSc2nc3ccc(C(F)(F)F)cc3[nH]2)c1 :: 0.966
Cc1ccc(-c2nc(NS(=O)(=O)c3cccc4nonc34)sc2C)cc1Cl :: 0.946
C/C(=N/NC(=S)NCC(C)(C)C)c1cc(F)cc(Cl)c1O :: 0.953
CC1=CC(=O)N(c2ccc(OC(F)(F)F)cc2)C1=O :: 0.837

Would you mind telling me what normalized growth value was observed for N#CC(C#N)=Cc1c(-c2ccccc2Cl)[nH]c2ccccc12 ?
0.96

Next up: Clc1ccccc1-c1csc(-c2cccnc2)n1
0.889

Next up: O=C(NNc1ccccc1)c1cc(-c2ccc(Cl)cc2)oc1C(F)(F)F
0.943

Every entry's value here was drawn from PubChem BioAssay AID1159580.
